- System: HepG2-CANX-COX4
- protocolText: lowest phenotypically active concentration; higher = less potent
- conditionDescription: treatment time: 24 h
Please respond with reported lowest phenotypically active concentration for every item in the list.
Answers are plain numbers, in µM.

// worked examples, lowest phenotypically active concentration included
COc1cc2ncnc(Nc3ccc(O)c(Br)c3)c2cc1OC = 9
COc1ccc(N2C(=O)CSC2c2cccc(Br)c2)c(OC)c1 (stereo not drawn) = 3
Oc1ccc(-c2nc(-c3ccc(F)cc3)c(-c3ccncc3)[nH]2)cc1 = 1
CCc1cncnc1N1CCN(Cc2nc3cc(C(F)(F)F)ccc3[nH]2)CC1 = 9
N#Cc1ccc2ncnc(NCCc3ccccc3)c2c1 [Senexin A] = 9

Hi there! I need lowest phenotypically active concentration for each item below, if you can.
1. C=C1C(=O)O[C@@H]2[C@H]3O[C@]3(C)CCC=C(C)CC[C@@H]12 [Parthenolide]
2. CC(C)n1c(/C=C/[C@@H](O)C[C@@H](O)CC(=O)O)c(-c2ccc(F)cc2)c2ccccc21.CC(C)n1c(/C=C/[C@H](O)C[C@H](O)CC(=O)O)c(-c2ccc(F)cc2)c2ccccc21 [Fluvastatin sodium]
3. COc1cc(OC)c2c(=O)[nH]c(-c3cc(C)c(OCCO)c(C)c3)nc2c1 [apabetalone]
4. COc1cc2c(cc1NS(=O)(=O)c1ccc(Br)cc1C)n(C)c(=O)n2C

Out:
[9, 1, 9, 3]
